Give log10 TGI for every item shown.
- Tested on: BT-549 breast
- test: NCI tumour cell line growth inhibition, 48 h
Remember, log10 of TGI, in µM.

Please list log10 TGI recorded for the compound CC1(c2cccc(C(F)(F)F)c2)CC(c2cccc(C(F)(F)F)c2)=C(C#N)C(=C(C#N)C#N)N1 (configuration not stated)
1.61

Please list log10 TGI recorded for the compound O=[N+]([O-])/C(C(Cl)=C(Cl)Cl)=C(\NCc1ccccc1)Sc1ccccc1
1.59

Please list log10 TGI recorded for the compound NC(=O)c1c(NC(=O)c2ccc(C(F)(F)F)cc2Cl)sc2c1CCC(=O)C2
0.28

Please list log10 TGI recorded for the compound COc1cc2c(/C=C3/C(=O)Nc4cc(C)c(O)cc43)c(Cl)[nH]c2cc1C
1.66

Please list log10 TGI recorded for the compound COC(=O)C1=CCC[C@H]2[C@@]1(COC(C)=O)CC[C@@H](C)[C@]2(C)CC(=O)c1ccoc1
1.50

Values compiled from PubChem BioAssay (NCI).
